This collection of values is drawn from ChEMBL document CHEMBL5143527.

- assay.overview: Oral bioavailability in Wistar Han rat at 0.9 mg/kg
- Format: ADME, organism-based
- stated.conditions: in vivo
property.name: bioavailability (%)
Numbers only, in %.

Exam item: Which bioavailability is listed for FC(F)(F)c1nccc(N[C@H]2CC[C@@H](Nc3ccc4nnc(Cl)n4n3)CC2)n1 ?
Marked response: 72

====

- study.system: Cytochrome P450 2D6 (Homo sapiens)
- Sequence (P10635 whole entry): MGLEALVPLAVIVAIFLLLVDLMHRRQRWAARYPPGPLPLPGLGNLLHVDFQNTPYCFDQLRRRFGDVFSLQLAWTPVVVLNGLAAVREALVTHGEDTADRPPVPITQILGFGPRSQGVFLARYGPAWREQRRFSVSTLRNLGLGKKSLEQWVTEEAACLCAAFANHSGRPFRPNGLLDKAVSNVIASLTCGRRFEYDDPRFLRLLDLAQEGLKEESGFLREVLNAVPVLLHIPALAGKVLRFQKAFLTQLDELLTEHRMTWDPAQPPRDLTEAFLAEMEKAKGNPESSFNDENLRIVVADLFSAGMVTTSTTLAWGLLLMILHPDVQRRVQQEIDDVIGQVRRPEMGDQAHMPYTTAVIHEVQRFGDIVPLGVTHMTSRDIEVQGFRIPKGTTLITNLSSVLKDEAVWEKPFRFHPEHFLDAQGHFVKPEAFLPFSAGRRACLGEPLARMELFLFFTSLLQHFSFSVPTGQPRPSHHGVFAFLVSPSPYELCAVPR
property.name: IC50

Exam item: Item: FC(F)(F)c1nccc(N[C@H]2CC[C@@H](Nc3ccc4nnc(Cl)n4n3)CC2)n1 Test system: Cytochrome P450 2D6 (Homo sapiens) Read-out: IC50 Value: ?
Marked response: > 30 µM

====

Please respond with reported logD for every item in the list.
- assay.overview: Lipophilicity, log D of compound at 7.4 by LC-MS analysis
- Assay type: physicochemical
- stated.conditions: pH 7.4
One number for each entry.

Examples from the recorded data:
>  <substance.smiles>
FC(F)(F)c1nccc(N2CCC(Nc3ccc4nnc(Cl)n4n3)CC2)n1

>  <logD>
2.9

$$$$
>  <substance.smiles>
FC(F)(F)c1nccc(N[C@H]2CC[C@@H](Oc3ccc4nnc(Cl)n4n3)CC2)n1

>  <logD>
3.5

$$$$
>  <substance.smiles>
FC(F)(F)c1nccc(N[C@H]2CC[C@@H](Nc3ccc4nnc(Br)n4n3)CC2)n1

>  <logD>
2.9

$$$$

Kindly give each listed record's logD.
1. FC(F)(F)c1nccc(N[C@H]2CC[C@@H](Nc3ccc4ncc(Cl)n4n3)CC2)n1
2. FC(F)(F)c1nccc(N[C@H]2CC[C@@H](Nc3ccnc(C(F)(F)F)n3)CC2)n1
3. FC(F)(F)c1nccc(O[C@H]2CC[C@@H](Nc3ccc4nnc(Cl)n4n3)CC2)n1
4. FC(F)(F)c1nccc(N[C@H]2CC[C@@H](Nc3ccncn3)CC2)n1
5. CN(c1ccnc(C(F)(F)F)n1)[C@H]1CC[C@@H](Nc2ccc3nnc(Cl)n3n2)CC1
6. FC(F)(F)c1nccc(N[C@H]2CC[C@@H](Nc3cnc4ccccc4c3)CC2)n1
7. FC(F)(F)c1nccc(NCC2CCN(c3ccc4nnc(Cl)n4n3)CC2)n1

Marked response:
4.3
4.3
3.7
1.9
3.6
4.6
2.7

====

- study.system: Cytochrome P450 1A2 (Homo sapiens)
- Sequence (P05177 whole entry): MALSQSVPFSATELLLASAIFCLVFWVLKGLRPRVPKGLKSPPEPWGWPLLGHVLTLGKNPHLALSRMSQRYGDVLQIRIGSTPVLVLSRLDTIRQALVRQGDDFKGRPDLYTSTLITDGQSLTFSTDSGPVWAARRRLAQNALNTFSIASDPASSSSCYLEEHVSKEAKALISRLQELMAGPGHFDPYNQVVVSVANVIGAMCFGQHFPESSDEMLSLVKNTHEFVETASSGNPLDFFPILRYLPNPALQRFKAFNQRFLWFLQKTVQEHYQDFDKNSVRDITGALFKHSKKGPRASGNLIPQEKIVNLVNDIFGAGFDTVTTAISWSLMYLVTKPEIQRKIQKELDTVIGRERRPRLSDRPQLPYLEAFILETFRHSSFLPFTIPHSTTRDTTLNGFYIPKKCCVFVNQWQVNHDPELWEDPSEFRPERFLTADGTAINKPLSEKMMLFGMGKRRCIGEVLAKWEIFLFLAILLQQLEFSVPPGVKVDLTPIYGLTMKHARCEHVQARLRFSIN
pIC50: −log10 of the molar value.
property.name: pIC50

Exam item: Which pIC50 is listed for FC(F)(F)c1nccc(N[C@H]2CC[C@@H](Nc3ccc4nnc(Cl)n4n3)CC2)n1 ?
Marked response: < 4.52
